Entry source: ChEMBL document CHEMBL1148879

- Experimental System: Serine/threonine-protein kinase Chk1 (Homo sapiens)
- Sequence (O14757 whole entry): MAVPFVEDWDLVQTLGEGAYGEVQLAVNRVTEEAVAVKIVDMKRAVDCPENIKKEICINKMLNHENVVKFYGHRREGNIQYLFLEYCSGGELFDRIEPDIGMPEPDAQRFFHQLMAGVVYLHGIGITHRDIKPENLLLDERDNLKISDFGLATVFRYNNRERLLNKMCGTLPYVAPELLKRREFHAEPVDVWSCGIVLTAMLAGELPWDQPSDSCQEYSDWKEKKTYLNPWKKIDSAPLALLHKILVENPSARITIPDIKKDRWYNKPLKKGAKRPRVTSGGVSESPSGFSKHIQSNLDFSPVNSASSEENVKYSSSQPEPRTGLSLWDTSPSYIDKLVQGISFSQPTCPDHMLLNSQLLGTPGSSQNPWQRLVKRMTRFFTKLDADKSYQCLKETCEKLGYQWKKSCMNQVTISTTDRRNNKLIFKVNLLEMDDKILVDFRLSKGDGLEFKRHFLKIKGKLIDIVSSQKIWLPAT
- Assay Text: Inhibition of recombinant CHK-mediated Cdc25C phosphorylation after 30 mins
Property Name: IC50 (nM)
The reply should contain only the number, in nM.

IN: Hello, please tell me recorded IC50 for this one: "COc1cc2c(cc1C(=O)N1CCC(O)CC1)Cc1c(-c3ccc(-c4ccc(O)cc4)cc3)n[nH]c1-2"
OUT: 0.24

IN: Hello, please tell me recorded IC50 for this one: "COc1cc2c(cc1CN1CCN(C)CC1)Cc1c(-c3ccc(-c4ccc(O)cc4)cc3)n[nH]c1-2"
OUT: 0.51

IN: Hello, please tell me recorded IC50 for this one: "OCc1cccc2c1Cc1c(-c3ccc(-c4ccc(O)cc4)cc3)n[nH]c1-2"
OUT: 7.8

IN: Hello, please tell me recorded IC50 for this one: "OCCNCc1ccc2c(c1)-c1[nH]nc(-c3ccc(-c4ccc(O)cc4)cc3)c1C2"
OUT: 12

IN: Hello, please tell me recorded IC50 for this one: "COc1cc2c(cc1C(=O)N[C@H]1CC[C@H](O)CC1)Cc1c(-c3ccc(-c4ccc(O)cc4)cc3)n[nH]c1-2"
OUT: 0.24

IN: Hello, please tell me recorded IC50 for this one: "COc1cc2c(cc1C(=O)NCc1ccccn1)Cc1c(-c3ccc(-c4ccc(O)c(F)c4)cc3)n[nH]c1-2"
OUT: 27

IN: Hello, please tell me recorded IC50 for this one: "Oc1ccc(-c2ccc(-c3n[nH]c4c3Cc3cc(O)ccc3-4)cc2)cc1"
OUT: 4.4
